# assayed.system: T1, human MDL-1 (human, UniProt Q9NY25 1-188)
# T1 sequence: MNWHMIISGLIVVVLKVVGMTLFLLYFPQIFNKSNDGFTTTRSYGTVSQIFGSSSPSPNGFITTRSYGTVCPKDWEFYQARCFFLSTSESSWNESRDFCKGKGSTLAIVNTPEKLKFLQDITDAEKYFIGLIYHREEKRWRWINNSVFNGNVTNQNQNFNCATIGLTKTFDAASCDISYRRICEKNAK
# test.details: cell-based or functional assay
measurement.name: secreted beta-hexosaminidase, OD (405-570), DT808 mouse mast cells, cross-link

[in] Quick check: secreted beta-hexosaminidase, OD (405-570), DT808 mouse mast cells, cross-link of DX230 (antibody, V domains shown, Rodent anti-human MDL-1 monoclonal antibody from a hybridoma; VL of the kappa subclass; also called anti-MDL-1 antibody clone DX230; ATCC PTA-8373) VH: EVQLVESGGDLVKPGGSLKLSCAASGFAFSNYDMSWVRQTPEKRLEWVAYISGGGGTTYYSDTVKGRFTISRDNAKNTLYLQMSSLKSEDTAMYYCVRHAVYYGKPYWGQGTTLTVSS VL: DIVLTQSPPSLAVSLGQRATVSCRASESVEHYGTGLMQWYQQKPGQPPRLLIYAASNVESGVPARFSGSGSGTDFSLNIHPVEEDDIAMYFCQQSRKVPWTFGGGTKLEIKR ?
[out] 3.17 OD (405-570)
